Tested on: Solanum nigrum
Assay: Example B2 herbicidal action, post-emergence, pots in glasshouse, damage score 0-10
Type: in vivo
Settings: application post-emergence, rate 1000 g/ha, evaluated after 13 days
Method: Seeds of a variety of test species were sown in standard soil in pots. […] After 13 days, the test was evaluated (10=total damage to plant; 0=no damage to plant).
quantity name: SOLNI damage score (10=total damage to plant; 0=no damage to plant)

Example entries and their recorded answers appear below.
1. CSC(=O)OC1=C(c2ccc(C(F)(F)F)cc2C(F)(F)F)S(=O)(=O)N(CC(F)F)c2nccnc21 :: 10
2. CCN1c2nccnc2C(OS(=O)(=O)C(F)(F)F)=C(c2ccc(Cl)cc2C(F)(F)F)S1(=O)=O :: 5
3. CCN1c2nccnc2C(OC(=O)C(C)(C)C)=C(c2c(Cl)ccc(Cl)c2Cl)S1(=O)=O :: 10
4. COCN1c2nccnc2C(OC(=O)C(C)(C)C)=C(c2ccc(Cl)cc2Cl)S1(=O)=O :: 6

Documented SOLNI damage score (10=total damage to plant; 0=no damage to plant) of CC(C)(C)C(=O)OC1=C(c2ccccc2I)S(=O)(=O)N(CC(F)F)c2nccnc21 : 10

Documented SOLNI damage score (10=total damage to plant; 0=no damage to plant) of Cc1ccc(C(F)(F)F)c(C2=C(OC(=O)C(C)(C)C)c3nccnc3N(CC(F)F)S2(=O)=O)c1 : 9

Documented SOLNI damage score (10=total damage to plant; 0=no damage to plant) of CC(C)C(=O)OC1=C(c2c(Br)cccc2Br)S(=O)(=O)N(CC(F)F)c2nccnc21 : 9

----------
Test system: Stellaria media
Test: Example B1 herbicidal action, post-emergence, seed trays in climatic chamber, damage score 0-10
Format: in vivo
Details: 1000 g/ha, evaluated after 9 days, 10=total damage to plant, 0=no damage to plant
Collected damage to plant, STEME values appear next to each entry.
# answer = number (no unit)

1. CC(C)(C)C(=O)OC1=C(c2ccc(Cl)cc2Cl)S(=O)(=O)Nc2nccnc21 :: 0
2. COC1=C(c2cc3ccccc3nc2Cl)S(=O)(=O)N(C)c2nccnc21 :: 1
3. CC(C)C(=O)OC1=C(c2c(F)ccc(F)c2Cl)S(=O)(=O)N(C)c2nccnc21 :: 6
4. COC1=C(c2ccc(Cl)cc2Cl)S(=O)(=O)N(C)c2nccnc21 :: 2
5. CN1c2nccnc2C(OC(=O)C(C)(C)C)=C(c2c(F)ccc(F)c2Cl)S1(=O)=O :: 8
6. CCN1c2nccnc2C(OC(=O)C(C)(C)C)=C(c2ccc(Cl)cc2Cl)S1(=O)=O :: 7

Note to self: damage to plant, STEME of CN1c2nccnc2C(OC(=O)C(C)(C)C)=C(c2cc3ccccc3nc2Cl)S1(=O)=O with Stellaria media was 4

Note to self: damage to plant, STEME of CCN1c2nccnc2C(OC(=O)C(C)(C)C)=C(c2c(F)ccc(F)c2Cl)S1(=O)=O with Stellaria media was 8

Note to self: damage to plant, STEME of CN1c2nccnc2C(O)=C(c2ccc(Cl)cc2Cl)S1(=O)=O [Compound D1] with Stellaria media was 8

Note to self: damage to plant, STEME of CN1c2nccnc2C(OC(=O)C(C)(C)C)=C(c2ccc(Cl)c(Cl)c2)S1(=O)=O with Stellaria media was 0

Note to self: damage to plant, STEME of CC(C)(C)C(=O)OC1=C(c2c(F)ccc(F)c2Cl)S(=O)(=O)Nc2nccnc21 with Stellaria media was 0

Note to self: damage to plant, STEME of CN1c2nccnc2C(OC(=O)C(C)(C)C)=C(c2ccc(Cl)cc2Cl)S1(=O)=O with Stellaria media was 6

Note to self: damage to plant, STEME of CCN1c2nccnc2C(OC(=O)C(C)C)=C(c2ccc(Cl)cc2Cl)S1(=O)=O with Stellaria media was 8

Note to self: damage to plant, STEME of CN1c2nccnc2C(OC(=O)C2CC2)=C(c2ccc(Cl)cc2Cl)S1(=O)=O with Stellaria media was 6

Note to self: damage to plant, STEME of CN1c2nccnc2C(O)=C(c2c(F)ccc(F)c2Cl)S1(=O)=O [Compound D2] with Stellaria media was 7

----------
System: Solanum nigrum
Experiment: Example B2 herbicidal action, post-emergence, pots in glasshouse, damage score 0-10
Type: in vivo
Conditions: application post-emergence, rate 1000 g/ha, evaluated after 13 days
Collected SOLNI damage score (10=total damage to plant; 0=no damage to plant) values appear next to each entry.
# answer = number (no unit)

1. CCN1c2nccnc2C(O)=C(c2c(F)ccc(Cl)c2Cl)S1(=O)=O :: 10
2. O=S1(=O)C(c2c(F)ccc(Cl)c2Cl)=C(O)c2nccnc2N1CC(F)F :: 10

Documented SOLNI damage score (10=total damage to plant; 0=no damage to plant) of CC(C)C(=O)OC1=C(c2ccccc2OC(F)(F)F)S(=O)(=O)N(CC(F)F)c2nccnc21 : 10

Documented SOLNI damage score (10=total damage to plant; 0=no damage to plant) of CCN1c2nccnc2C(O)=C(c2ccccc2[N+](=O)[O-])S1(=O)=O : 1

Documented SOLNI damage score (10=total damage to plant; 0=no damage to plant) of CC(C)C(=O)OC1=C(c2ccccc2[N+](=O)[O-])S(=O)(=O)N(CC(F)F)c2nccnc21 : 2

Documented SOLNI damage score (10=total damage to plant; 0=no damage to plant) of CCN1c2nccnc2C(OC(=O)C(C)C)=C(c2cc(I)ccc2Cl)S1(=O)=O : 7

Documented SOLNI damage score (10=total damage to plant; 0=no damage to plant) of CCN1c2nccnc2C(OC(=O)C(C)(C)C)=C(c2ccc(Cl)cc2C(F)(F)F)S1(=O)=O : 9

Documented SOLNI damage score (10=total damage to plant; 0=no damage to plant) of CCSC(=O)OC1=C(c2c(Cl)ccc(OC)c2F)S(=O)(=O)N(CC(F)F)c2nccnc21 : 8

Documented SOLNI damage score (10=total damage to plant; 0=no damage to plant) of CC#CCN1c2nccnc2C(OC(=O)SCC)=C(c2c(Cl)ccc(Cl)c2C(F)(F)F)S1(=O)=O : 6

----------
Tested on: Solanum nigrum
Assay: Example B2 herbicidal action, post-emergence, pots in glasshouse, damage score 0-10
Format: in vivo
Conditions: application post-emergence, rate 1000 g/ha, evaluated after 13 days
quantity name: SOLNI damage score (10=total damage to plant; 0=no damage to plant)
# answer = number (no unit)

Documented SOLNI damage score (10=total damage to plant; 0=no damage to plant) of CC(C)(C)C(=O)OC1=C(c2ccccc2C(F)(F)F)S(=O)(=O)N(CC(F)F)c2nccnc21 : 6

Documented SOLNI damage score (10=total damage to plant; 0=no damage to plant) of CC(C)C(=O)OC1=C(c2ccc(C(F)(F)F)cc2C(F)(F)F)S(=O)(=O)N(CC(F)F)c2nccnc21 : 10

Documented SOLNI damage score (10=total damage to plant; 0=no damage to plant) of CCN1c2nccnc2C(OC(=O)C(C)(C)C)=C(c2cccc(C(F)(F)F)c2Cl)S1(=O)=O : 3

Documented SOLNI damage score (10=total damage to plant; 0=no damage to plant) of O=S1(=O)C(c2ccccc2I)=C(O)c2nccnc2N1CC(F)F : 10

----------
Collected IPOHE damage score (10=total damage to plant; 0=no damage to plant) values appear next to each entry.
Test system: Ipomea hederaceae
Assay: Example B2 herbicidal action, post-emergence, pots in glasshouse, damage score 0-10
Format: in vivo
Conditions: application post-emergence, rate 1000 g/ha, evaluated after 13 days
# answer = number (no unit)

Example entries and their recorded answers appear below.
1. CCN1c2nccnc2C(O)=C(c2c(Cl)ccc(Cl)c2C(F)(F)F)S1(=O)=O [Compound D26] :: 8
2. CCN1c2nccnc2C(OC(=O)C(C)(C)C)=C(c2cccc(Cl)c2Cl)S1(=O)=O [Compound C98] :: 0
3. CCSC(=O)OC1=C(c2c(Cl)ccc(OC)c2F)S(=O)(=O)N(CC(F)F)c2nccnc21 [Compound C145] :: 8
4. CCN1c2nccnc2C(OC(=O)C(C)C)=C(c2c(Cl)ccc(Cl)c2C(F)(F)F)S1(=O)=O [Compound C50] :: 7

Documented IPOHE damage score (10=total damage to plant; 0=no damage to plant) of O=S1(=O)C(c2ccc(C(F)(F)F)cc2C(F)(F)F)=C(O)c2nccnc2N1CC(F)F [Compound D55] : 10

Documented IPOHE damage score (10=total damage to plant; 0=no damage to plant) of CCN1c2nccnc2C(OC(=O)C(C)(C)C)=C(c2c(Cl)cccc2C(F)(F)F)S1(=O)=O [Compound C17] : 7

----------
Tested on: Ipomea hederaceae
Experiment: Example B2 herbicidal action, post-emergence, pots in glasshouse, damage score 0-10
Assay type: in vivo
Conditions: application post-emergence, rate 1000 g/ha, evaluated after 13 days
Collected IPOHE damage score (10=total damage to plant; 0=no damage to plant) values appear next to each entry.
# answer = number (no unit)

Example entries and their recorded answers appear below.
1. CCN1c2nccnc2C(O)=C(c2cc(C(F)(F)F)ccc2Br)S1(=O)=O :: 10
2. O=S1(=O)C(c2c(Cl)cccc2C(F)(F)F)=C(O)c2c(ncc[n+]2[O-])N1CC(F)F [Compound E2] :: 8
3. O=S1(=O)C(c2ccc(Br)cc2C(F)(F)F)=C(O)c2nccnc2N1CC(F)F :: 10

Moving on to another compound below.
Documented IPOHE damage score (10=total damage to plant; 0=no damage to plant) of O=S1(=O)C(c2ccc(Cl)cc2Cl)=C(O)c2nccnc2N1CC(F)(F)F : 7
